measured.target: full-length Crk-II (SH2-nSH3-cSH3) (UniProt Q64010-1 1-304)
Sequence (Q64010 whole entry): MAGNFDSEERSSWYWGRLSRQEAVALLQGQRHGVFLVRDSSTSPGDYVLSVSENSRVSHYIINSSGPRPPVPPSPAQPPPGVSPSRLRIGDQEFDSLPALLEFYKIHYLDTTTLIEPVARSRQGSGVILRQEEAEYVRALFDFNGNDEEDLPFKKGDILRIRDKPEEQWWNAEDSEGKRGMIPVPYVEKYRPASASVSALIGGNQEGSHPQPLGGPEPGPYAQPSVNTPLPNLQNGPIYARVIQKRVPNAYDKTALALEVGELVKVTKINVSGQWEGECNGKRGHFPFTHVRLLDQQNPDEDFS
experimental.protocol: other fluorescence titration
No end group written: not given here.
metric: Kd (µM)
The response must be a number in µM with no trailing unit.

Q: State its Kd for this binder: HPPPPLPPKRRK(fluorescein)G-NH2 [fluorescein-labeled C3G-derived ligand]
Ans: 0.286
